Numbers sourced from ChEMBL document CHEMBL1135240.

Known half-life of a selection of molecules
METHOD NOTES: The compound was evaluated for half life at 70 deg. C
Type: ADME
Report only the number, with the unit h understood.

{"COMPOUND SMILES": "O=[N+]([O-])c1ccc(S(=O)(=O)N2CC#Cc3ccccc3C#CCC2)cc1", "half-life (h)": 49}

Dear colleague, I am looking for the recorded half-life of the following molecule: O=[N+]([O-])c1ccc(S(=O)(=O)N2CC#Cc3ccccc3C#CCC2)c([N+](=O)[O-])c1 28

Dear colleague, I am looking for the recorded half-life of the following molecule: O=C(c1ccccc1)N1CC#Cc2ccccc2C#CCC1 188

Dear colleague, I am looking for the recorded half-life of the following molecule: O=C(c1ccc([N+](=O)[O-])cc1)N1CC#Cc2ccccc2C#CCC1 136
